study.target: T1, Peptide 4: Biotin-AGGGGSGGGGSGGGGSAAA-Tyr-acid (N-terminal biotin; C-terminal acid; no PC)
T1 construct: control peptide without PC
T1 peptide: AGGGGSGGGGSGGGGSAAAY
assay.details: scFv ELISA
quantity.kind: OD450 (OD450)
The reply should contain only the number, in OD450.

Entry under review: PcOxP_DB01_B12 (scFv, V domains shown, scFv in periplasmic extract) VH: EVQLLESGGGLVQPGGSLRLSCAASGFTFSSYYMEWVRQAPGKGLEWVAASRNKGNSYTTEYADSVKGRFTISRDNSKNTLYLQMNSLRAEDTAVYYCARDYYGSSYWYFDVWGQGTLVTVSS VL: DIVMTQSPDSLAVSLGERATINCTASESLYSSKHKVHYLAWYQQKPGQPPKLLIYGASNRYIGVPDRFSGSGSGTDFTLTISSLQAEDVAVYYCGQFYSYPLTFGGGTKVEIK . Reported OD450?
0.06

Lab note: next binder to report on.
Entry under review: PcOxP_DB01_F07 (scFv, V domains shown, scFv in periplasmic extract) VH: EVQLLESGGGLVQPGGSLRLSCAASGDTFSDFYLEWVRQAPGKGLEWVAASRNKANGYTTEYADSVKGRFTISRDNSKNTLYLQMNSLRAEDTAVYYCARDYYHSSYWYFDVWGQGTLVTVSS VL: DIVMTQSPDSLAVSLGERATINCTASESLYSSKHKVHYLAWYQQKPGQPPKLLIYGASNRYIGVPDRFSGSGSGTDFTLTISSLQAEDVAVYYCAHFYSYPLTFGGGTKVEIK . Reported OD450?
0.04

// data source = patent US20250320312A1
